Target chain: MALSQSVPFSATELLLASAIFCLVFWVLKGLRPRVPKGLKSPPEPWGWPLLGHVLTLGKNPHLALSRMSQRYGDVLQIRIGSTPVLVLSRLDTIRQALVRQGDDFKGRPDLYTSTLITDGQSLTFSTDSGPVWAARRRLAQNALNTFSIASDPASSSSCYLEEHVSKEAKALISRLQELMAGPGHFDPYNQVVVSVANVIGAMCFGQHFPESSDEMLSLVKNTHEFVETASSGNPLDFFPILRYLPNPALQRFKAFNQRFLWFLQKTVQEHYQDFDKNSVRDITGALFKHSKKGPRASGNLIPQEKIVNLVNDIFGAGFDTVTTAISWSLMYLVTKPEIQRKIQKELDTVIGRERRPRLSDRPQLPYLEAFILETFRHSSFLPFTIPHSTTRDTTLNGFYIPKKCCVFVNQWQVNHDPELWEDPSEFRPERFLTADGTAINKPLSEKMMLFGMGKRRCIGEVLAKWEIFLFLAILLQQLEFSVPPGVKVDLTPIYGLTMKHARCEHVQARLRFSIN
Experimental Readout: IC50

What value of IC50 has been recorded for this entry: O=C1N(c2ccc(F)cc2)CCc2nc(COc3ccccc3)cn21 > 20 µM
